Where do the numbers come from? From patent US4061861A.

system: Salmonella heidelberg
readout.label: MIC (µg/mL)
Answer with a number only, understood to be in µg/mL.

IN: Given the entry Cn1nnnc1SCC1=C(C(=O)O)N2C(=O)C(NC(=O)C(NC(=O)n3c(=O)n(C)c4ccccc43)c3ccccc3)[C@H]2SC1 (some centres unmarked) , report its measured MIC.
OUT: 18

IN: Would you mind doing CC(=O)OCC1=C(C(=O)O)N2C(=O)C(NC(=O)C(NC(=O)n3c(=O)n(C)c4ccccc43)c3ccccc3)[C@H]2SC1 (some centres unmarked) as well?
OUT: 80

IN: Would you mind doing NC(=O)OCC1=C(C(=O)O)N2C(=O)C(NC(=O)C(NC(=O)n3c(=O)[nH]c4ccccc43)c3ccc(O)cc3)[C@H]2SC1 (some centres unmarked) as well?
OUT: 120

IN: Would you mind doing CC(=O)OCC1=C(C(=O)O)N2C(=O)C(NC(=O)C(NC(=O)n3c(=O)[nH]c4ccccc43)c3ccccc3)[C@H]2SC1 (some centres unmarked) as well?
OUT: 120

IN: Would you mind doing Cn1nnnc1SCC1=C(C(=O)O)N2C(=O)C(NC(=O)C(NC(=O)n3c(=O)[nH]c4ccccc43)c3ccccc3)[C@H]2SC1 (some centres unmarked) as well?
OUT: 15

---

Can you tell me MIC for the items I'm about to list?
test system: V84; assay: MIC by gradient plate in vitro method, V84 (penicillin resistant Staphylococcus); format: cell-based; conditions: read-out: Minimum Inhibitory Concentration
Answer with a number only, understood to be in µg/mL.

IN: Given the entry CC(=O)OCC1=C(C(=O)O)N2C(=O)C(NC(=O)C(NC(=O)n3c(=O)n(C)c4ccccc43)c3ccccc3)[C@H]2SC1 (some centres unmarked) , report its measured MIC.
OUT: 0.9

IN: Would you mind doing CC(=O)OCC1=C(C(=O)O)N2C(=O)C(NC(=O)C(NC(=O)n3c(=O)[nH]c4ccccc43)c3ccccc3)[C@H]2SC1 (some centres unmarked) as well?
OUT: 8

IN: Would you mind doing Cn1nnnc1SCC1=C(C(=O)O)N2C(=O)C(NC(=O)C(NC(=O)n3c(=O)[nH]c4ccccc43)c3ccccc3)[C@H]2SC1 (some centres unmarked) as well?
OUT: 0.9

IN: Would you mind doing Cn1nnnc1SCC1=C(C(=O)O)N2C(=O)C(NC(=O)C(NC(=O)n3c(=O)n(C)c4ccccc43)c3ccccc3)[C@H]2SC1 (some centres unmarked) as well?
OUT: 0.6

IN: Would you mind doing NC(=O)OCC1=C(C(=O)O)N2C(=O)C(NC(=O)C(NC(=O)n3c(=O)[nH]c4ccccc43)c3ccc(O)cc3)[C@H]2SC1 (some centres unmarked) as well?
OUT: 0.7

---

test system: Shigella sp.
Label Satisfied when MIC is strictly below 20 µg/mL; at or above that, label Not satisfied.

IN: Please let me know if CC(=O)OCC1=C(C(=O)O)N2C(=O)C(NC(=O)C(NC(=O)n3c(=O)n(C)c4ccccc43)c3ccccc3)[C@H]2SC1 (some centres unmarked) shows MIC below 20 µg/mL.
OUT: Not satisfied

IN: Would you mind doing Cn1nnnc1SCC1=C(C(=O)O)N2C(=O)C(NC(=O)C(NC(=O)n3c(=O)[nH]c4ccccc43)c3ccccc3)[C@H]2SC1 (some centres unmarked) as well?
OUT: Satisfied

IN: Would you mind doing CC(=O)OCC1=C(C(=O)O)N2C(=O)C(NC(=O)C(NC(=O)n3c(=O)[nH]c4ccccc43)c3ccccc3)[C@H]2SC1 (some centres unmarked) as well?
OUT: Not satisfied

IN: Would you mind doing Cn1nnnc1SCC1=C(C(=O)O)N2C(=O)C(NC(=O)C(NC(=O)n3c(=O)n(C)c4ccccc43)c3ccccc3)[C@H]2SC1 (some centres unmarked) as well?
OUT: Satisfied

IN: Would you mind doing NC(=O)OCC1=C(C(=O)O)N2C(=O)C(NC(=O)C(NC(=O)n3c(=O)[nH]c4ccccc43)c3ccc(O)cc3)[C@H]2SC1 (some centres unmarked) as well?
OUT: Not satisfied

---

These molecules were tested on Klebsiella pneumoniae; log10 of MIC is the recorded read-out.
Transform log10 | Measure MIC | Unit µg/mL

IN: Given the entry NC(=O)OCC1=C(C(=O)O)N2C(=O)C(NC(=O)C(NC(=O)n3c(=O)[nH]c4ccccc43)c3ccc(O)cc3)[C@H]2SC1 (some centres unmarked) , report its measured log10 of MIC.
OUT: 2.00

IN: Would you mind doing CC(=O)OCC1=C(C(=O)O)N2C(=O)C(NC(=O)C(NC(=O)n3c(=O)n(C)c4ccccc43)c3ccccc3)[C@H]2SC1 (some centres unmarked) as well?
OUT: 1.40

IN: Would you mind doing CC(=O)OCC1=C(C(=O)O)N2C(=O)C(NC(=O)C(NC(=O)n3c(=O)[nH]c4ccccc43)c3ccccc3)[C@H]2SC1 (some centres unmarked) as well?
OUT: 1.95

IN: Would you mind doing Cn1nnnc1SCC1=C(C(=O)O)N2C(=O)C(NC(=O)C(NC(=O)n3c(=O)[nH]c4ccccc43)c3ccccc3)[C@H]2SC1 (some centres unmarked) as well?
OUT: 0.85

IN: Would you mind doing Cn1nnnc1SCC1=C(C(=O)O)N2C(=O)C(NC(=O)C(NC(=O)n3c(=O)n(C)c4ccccc43)c3ccccc3)[C@H]2SC1 (some centres unmarked) as well?
OUT: 1.28

---

tested on: Serratia marcescens
readout.label: MIC

IN: Test system Serratia marcescens; read-out MIC; what value for NC(=O)OCC1=C(C(=O)O)N2C(=O)C(NC(=O)C(NC(=O)n3c(=O)[nH]c4ccccc43)c3ccc(O)cc3)[C@H]2SC1 (some centres unmarked) ?
OUT: > 200 µg/mL

IN: Would you mind doing Cn1nnnc1SCC1=C(C(=O)O)N2C(=O)C(NC(=O)C(NC(=O)n3c(=O)[nH]c4ccccc43)c3ccccc3)[C@H]2SC1 (some centres unmarked) as well?
OUT: 120 µg/mL

IN: Would you mind doing Cn1nnnc1SCC1=C(C(=O)O)N2C(=O)C(NC(=O)C(NC(=O)n3c(=O)n(C)c4ccccc43)c3ccccc3)[C@H]2SC1 (some centres unmarked) as well?
OUT: > 200 µg/mL

IN: Would you mind doing CC(=O)OCC1=C(C(=O)O)N2C(=O)C(NC(=O)C(NC(=O)n3c(=O)n(C)c4ccccc43)c3ccccc3)[C@H]2SC1 (some centres unmarked) as well?
OUT: > 200 µg/mL

IN: Would you mind doing CC(=O)OCC1=C(C(=O)O)N2C(=O)C(NC(=O)C(NC(=O)n3c(=O)[nH]c4ccccc43)c3ccccc3)[C@H]2SC1 (some centres unmarked) as well?
OUT: > 200 µg/mL
